These data points were gathered from ChEMBL document CHEMBL1143280.

- protocol_notes: Oral bioavailability in cynomolgus monkey at 2.1 mg/kg
- Type: ADME, organism-based, Macaca fascicularis
- condition_summary: in vivo
measurement_label: bioavailability (%)
One number for each entry, in %.

Which value of bioavailability has been reported for CCc1cc(Nc2nccc(-c3c(-c4ccc(OC)c(C(=O)Nc5c(F)cccc5F)c4)nc4ccccn34)n2)c(OC)cc1N1CCC(N2CCN(S(C)(=O)=O)CC2)CC1 in the records? 97
